All values here come from patent CN114790245A.

# studyTarget: 血浆激肽释放酶(plasma kallikrein,PK) (human, UniProt P03952 20-638)
# Sequence (P03952 20-638 limits assumed): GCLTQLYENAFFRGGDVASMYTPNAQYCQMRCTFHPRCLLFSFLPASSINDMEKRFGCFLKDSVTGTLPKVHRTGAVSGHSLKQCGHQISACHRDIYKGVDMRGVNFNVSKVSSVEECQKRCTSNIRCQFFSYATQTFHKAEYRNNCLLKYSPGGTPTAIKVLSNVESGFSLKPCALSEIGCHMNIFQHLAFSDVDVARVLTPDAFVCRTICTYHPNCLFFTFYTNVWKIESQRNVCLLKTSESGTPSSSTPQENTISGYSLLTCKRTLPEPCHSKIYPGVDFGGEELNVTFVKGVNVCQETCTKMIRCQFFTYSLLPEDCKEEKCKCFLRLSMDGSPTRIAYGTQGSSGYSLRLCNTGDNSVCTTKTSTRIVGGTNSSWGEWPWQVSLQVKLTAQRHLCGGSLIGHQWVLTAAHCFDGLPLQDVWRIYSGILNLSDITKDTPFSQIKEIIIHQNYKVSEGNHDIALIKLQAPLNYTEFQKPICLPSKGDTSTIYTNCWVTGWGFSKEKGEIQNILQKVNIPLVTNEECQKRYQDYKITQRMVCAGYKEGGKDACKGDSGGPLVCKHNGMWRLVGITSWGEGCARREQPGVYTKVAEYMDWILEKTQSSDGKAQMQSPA
# protocolDescription: cell-based or functional assay
measuredProperty: IC50(nM), PK enzyme activity on H-Pro-Phe-Arg-AMC (fluorescence)
# value in nM; strip the unit string

binder	recordedResult
KH14 (antibody, human IgG1, kappa, V domains shown) VH: QVQLVQSGAEVKKPGASVKVSCKASGYTFTNYWMHWVRQAPGQGLEWMGAIYPGDSDTSYNQKFKGRVTMTRDTSTSTVYMELSSLRSEDTAVYYCARERAYYRYDEDFDYWGQGTLVTVSS VL: EIVLTQSPAIMSASPGERVTMTCSATSIINSNYFHWYQQKPGTSPRRWIYRTSNLASGVPARFSGSGSGTDYSLTISSMEPEDAATYYCQQGSSLPRTFGGGTKLEIKR	0.398
KH21 (antibody, V domains shown) VH: EVQLQQSGAELVKPGASVKLSCTGSGFNIKDIYMFWVKQRPEQGLEWIGRIDPENGNIKYDPKFQGKATITAETSSNTVYLQLNSLTSEDTAVYYCSRGGGLFAYWGQGTLVTVSA VL: DIQMTQSPSSLSASLGGKVTITCKASQDINKYIAWYQHKPGKGPRLLIHYTSTLQPGIPSRFSGSGSGSDYSFSISTLEPEDIATYYCLQYDDLWTFGGGTKLEIK	0.82

Tell me the measured IC50(nM), PK enzyme activity on H-Pro-Phe-Arg-AMC (fluorescence) of KH15 (antibody, human IgG4 S228P, kappa, V domains shown) VH: EVQLVQSGAEVKKPGATVKISCKVSGYTFTNYWMHWVQQAPGKGLEWMGAIYPGDSDTSYNQKFKGRVTITADTSTDTAYMELSSLRSEDTAVYYCTRERAYYRYDEDFDYWGQGTLVTVSS VL: EIVMTQSPPTLSLSPGERVTLSCSATSIINSNYFHWYQQKPGQAPRLLIYRTSNLASGIPARFSGSGSGTDFTLTISSLQPEDFAVYYCQQGSSLPRTFGGGTKLEIKR , please. 0.224

What measured IC50(nM), PK enzyme activity on H-Pro-Phe-Arg-AMC (fluorescence) goes with KH01 (antibody, human IgG4 S228P, kappa, V domains shown) VH: EVQLHQSGAELVKPGASVRLSCTASGFNIKDTYIFWVKQRPEQGLEWIGRIDPENDNTKFDPKIQGKATLTADTSSNTAYLQLGSLTSEDSAIYYCAKGGGLFAYWGQGTLVSVSA VL: DIQMTQSPSSLSASLGGKVTITCKASHDINKYIAWYQHKPGSGPRLLIHFTSTLQSDIPSRFSGSGSGRDYSFSISNLEPEDIATYYCLQYDNLFTFGGGTKLEIKR ? 0.297
